Biological target: T1, cyno IL-33 N-His (cynomolgus monkey)
T1 chain: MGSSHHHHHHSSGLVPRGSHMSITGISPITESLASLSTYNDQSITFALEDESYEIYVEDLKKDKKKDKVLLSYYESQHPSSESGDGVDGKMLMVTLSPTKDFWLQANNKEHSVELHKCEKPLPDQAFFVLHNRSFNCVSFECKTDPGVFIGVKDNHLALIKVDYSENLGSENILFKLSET
Assay: SPR Biacore T200, 37 C
Please respond with reported kon for every item in the list.
Kindly write the number and append the unit.

Please give the measured kon for this binder: H4H9664P (antibody, V domains shown) VH: QVQLVESGGGVVQPGRSLRLSCAASGFTFSSYGLHWVRQSPGKGLEWVALISYDGSNKYYADSVKGRFTISRDNSKNTLYLQMNSLRPEDTAGYFCAKSLYTTSWYGGFDYWGQGTLVTVSS VL: DIQMTQSPSSVSASVGDRVTITCRASQGIRSWLAWYQQKPGKAPNLLIYAASSLQSGVPSRFSGSGSGTDFTLTISSLQPEDFATYYCQQANSFPPTFGPGTKVDIK
205000 M⁻¹ s⁻¹

Then this binder: H4H9660P (antibody, V domains shown) VH: EVQLVESGGGLVQPGGSLRLSCAASGITLSSYGMSWVRQAPGKGLEWVASIFGSGGGPYYADSVKGRFTMSRDNSKNTLYLQMNSLRAEDTAVYYCAKDRYSGSYYGGFDYWGRGTLVTVSS VL: DIQMTQSPSSVSASVGDRVTITCRASQGITSWLAWYQQKPGKAPTLLIYAASSLQTGVPSRFSGSGSGTDFTLTISSLQPEHFATYYCQQANSFPPTFGGGTKVEIK
385000 M⁻¹ s⁻¹

// same read-out, input: 10C12.38.H6.87Y.58I IgG4 (antibody, V domains shown, also called anti-IL33 10C12.38.H6.87Y.58I IgG4) VH: EVQLVESGGGLVQPGGSLRLSCAASGFTFSSFSMSWVRQAPGKGLEWVATISGGKTFTDYVDSVKGRFTISRDDSKNTLYLQMNSLRAEDTAVYYCTRANYGNWFFEVWGQGTLVTVSS VL: EIVLTQSPATLSLSPGERATLSCRASESVAKYGLSLLNWFQQKPGQPPRLLIFAASNRGSGIPARFSGSGSGTDFTLTISSLEPEDFAVYYCQQSKEVPFTFGQGTKVEIKR
1.69e+06 M⁻¹ s⁻¹
